# protocol: Pharmacokinetics after single iv or oral S2227 in dogs
# Assay type: in vivo, beagle dogs
# applied conditions: male, beagle, dog, plasma, po, 10 mg/kg
measured quantity: half-life
Give the number first and the unit second.

Exercise: Using the record for c1csc(CNc2cc[nH]n2)c1 , report its half-life.
Key: 4.77 h

---

# protocol: Pharmacokinetics after single iv or oral S2227 in rats
# Format: in vivo, Sprague-Dawley rats
# applied conditions: male, Sprague-Dawley, rat, plasma, iv, 1 mg/kg
measured quantity: Cmax (ng/mL)
API: value field is a number in ng/mL; no unit string.

Exercise: Using the record for c1csc(CNc2cc[nH]n2)c1 [M179, N-(2-thienylmethyl)-1H-pyrazol-3-amine] , report its Cmax.
Key: 15.1

---

# protocol: Pharmacokinetics after single iv or oral S2227 in dogs
# Assay type: in vivo, beagle dogs
# applied conditions: male, beagle, dog, plasma, iv, 1 mg/kg
measured quantity: AUC(0-t) (ng·h/mL)
API: value field is a number in ng·h/mL; no unit string.

Exercise: Using the record for c1csc(CNc2cc[nH]n2)c1 , report its AUC(0-t).
Key: 6.63

---

# protocol: Pharmacokinetics after single iv or oral S2227 in rats
# Format: in vivo, Sprague-Dawley rats
# applied conditions: female, Sprague-Dawley, rat, plasma, po, 10 mg/kg
measured quantity: AUC(0-t) (ng·h/mL)
API: value field is a number in ng·h/mL; no unit string.

Exercise: Using the record for c1csc(CNc2cc[nH]n2)c1 , report its AUC(0-t).
Key: 384

---

# protocol: Pharmacokinetics after single iv or oral S2227 in dogs
# Type: in vivo, beagle dogs
# applied conditions: male, beagle, dog, plasma, po, 10 mg/kg
measured quantity: AUC(0-t) (ng·h/mL)
API: value field is a number in ng·h/mL; no unit string.

Exercise: Using the record for c1csc(CNc2cc[nH]n2)c1 , report its AUC(0-t).
Key: 22.2

---

# protocol: Pharmacokinetics after single iv or oral S2227 in rats
# Format: in vivo, Sprague-Dawley rats
# applied conditions: female, Sprague-Dawley, rat, plasma, po, 10 mg/kg
measured quantity: Cmax
Give the number first and the unit second.

Exercise: Using the record for c1csc(CNc2cc[nH]n2)c1 , report its Cmax.
Key: 407 ng/mL

---

# protocol: Pharmacokinetics after single iv or oral S2227 in rats
# Assay type: in vivo, Sprague-Dawley rats
# applied conditions: female, Sprague-Dawley, rat, plasma, po, 10 mg/kg
measured quantity: half-life (h)
API: value field is a number in h; no unit string.

Exercise: Using the record for c1csc(CNc2cc[nH]n2)c1 , report its half-life.
Key: 1.02

---

# protocol: Pharmacokinetics after single iv or oral S2227 in dogs
# Type: in vivo, beagle dogs
# applied conditions: male, beagle, dog, plasma, po, 10 mg/kg
measured quantity: Tmax (h)
API: value field is a number in h; no unit string.

Exercise: Using the record for c1csc(CNc2cc[nH]n2)c1 , report its Tmax.
Key: 4.67

---

# protocol: Pharmacokinetics after single iv or oral S2227 in dogs
# Format: in vivo, beagle dogs
# applied conditions: male, beagle, dog, plasma, po, 100 mg/kg
measured quantity: Tmax (h)
API: value field is a number in h; no unit string.

Exercise: Using the record for c1csc(CNc2cc[nH]n2)c1 [M179, N-(2-thienylmethyl)-1H-pyrazol-3-amine] , report its Tmax.
Key: 10

Hello, the source for this data is paper PMC5598389, in case you need it.
